Answer each item with its documented Kd.
Target: alpha-synuclein fibrils, P37840
Assay: SPR, captured mAb
Conditions: remark: other sources report otherwise
One number for each entry, in nM.

BINDER: ACI-7079-2606A6-Ab2 (antibody, V domains shown) VH: QVQLQQSGPELVKPGASVKISCKASGFAFSSSWMNWVKQRPGKGLEWVGRIFPGDGDTNYDRKFKDKATLTADKSSSTAYMQLSSLTSEDSAVYFCARWTGGYDWFAYWGQGTLVTVSA VL: DIVLTQSPASLAVSLGQRATISCRASQSVSTSNYNYLHWYQQKPGQPPKLLITYASNLESGVPARFSGSGSGTDFTLNIHPVEEGDTATYYCQHSWEIPLTFGAGTKLELK
UNITS_TEXT: nM
Kd: 56.2
//
BINDER: ACI-7067-1112H8-Ab2 (antibody, V domains shown) VH: EVKLEESGGGLVQPGGSMKLSCAASGFTFTDAWMNWVRQSPEKGLEWIAEIRNKAHNYATYYAESVKGRFDISGDDSKSSVYLQMNNLRVEDTGIYYCTIYSYWGPGTLVTVSA VL: SIVMTQTPKFLLMSPGDRVTMTCTASQSVSNYVAWYQQKPGQSPKLLIYSASNRFTGVPDRFTGSGYGTDFTFTINTVQTEDMAVYFCQQDYTSPYTFGGGTKLEIK
UNITS_TEXT: nM
Kd: 18.7

# Kd lookup, item ACI-7079-2605B3-Ab2 (antibody, V domains shown) VH: EVQLVESGGGLVQPKGSLKLSCAASGFIFKTYAMHWVRQAPGKGLEWVARIRSKGGNYATYFADSVKDRFTISRDDSQNMLYLQVNNLKIEDTAMYFCVRGGNYSWFAYWGQGTLVTVSA VL: QIVLTQSPAIMSASPGEKVTMTCSASSSVTYMHWYQQKSGTSPKRWIYDTSQLASGVPARFSGSGSGTSHSLTISSMETEDAATYYCQQWTRNPPTFGGGTKLAIK
17.4

// data source = patent US20250340623A1
